# System: NCI/ADR-RES ovarian
# Protocol: NCI tumour cell line growth inhibition, 48 h
Task for the reader: assign each of the following compounds its reported TGI.

Query: Looking for the measured TGI of COc1ccc(CNc2cnc3cc(N)cc(N)c3n2)cc1 , can you help?
Result: 76.2 µM

Query: Looking for the measured TGI of CC(=O)O[C@@H]1O[Si](C(C)(C)C)(C(C)(C)C)[C@H](C)[C@H]1C , can you help?
Result: > 100 µM

Query: Looking for the measured TGI of Cc1cc2c(cc1C)C(=O)/C(=N/Nc1ccc(F)cc1)CCO2 , can you help?
Result: > 100 µM

Query: Looking for the measured TGI of C[C@]12CC/C(=N\OCCN3CCCCC3)C=C1CCC1C2CC[C@@]2(C)C1CC[C@]2(C)O (some centres not stated) , can you help?
Result: 20.5 µM

Query: Looking for the measured TGI of COC(=O)c1c(C(=O)OC)c2c3ccccc3n(C)c2c2c1c1ccccc1n2C , can you help?
Result: > 100 µM

Query: Looking for the measured TGI of C=CCn1cnc2c(=O)[nH]c(Nc3ccccc3)nc21 , can you help?
Result: > 100 µM

Query: Looking for the measured TGI of COc1cc(/C=C\c2cc(/C=C\c3ccc(O)c(OC)c3)n(C(=O)CNc3ccc(Cl)cc3)n2)ccc1O , can you help?
Result: 41.8 µM

Query: Looking for the measured TGI of CCc1nc2cc(/C=C/C(=O)NO)ccc2c(=O)n1CCc1ccc(F)cc1 , can you help?
Result: 3.15 µM

Query: Looking for the measured TGI of Oc1ccc(-c2cn3cc(C(F)(F)F)ccc3n2)cc1 , can you help?
Result: > 100 µM

Query: Looking for the measured TGI of O=C1/C(=C/c2cccs2)NC(=S)N1CN1CCCC(CO)C1 (configuration not stated) , can you help?
Result: > 100 µM

Query: Looking for the measured TGI of Cn1c(-c2ccc(N=NNc3ccc(-c4n[nH]c(=S)n4C)cc3)cc2)n[nH]c1=S , can you help?
Result: > 100 µM

Query: Looking for the measured TGI of Cn1c(=O)oc2cc(Br)ccc21 , can you help?
Result: > 100 µM

Query: Looking for the measured TGI of CCN(CC)C(=S)SS(=O)(=O)c1ccccc1[N+](=O)[O-] , can you help?
Result: 97.5 µM

Query: Looking for the measured TGI of O=C(NNC(=S)NCc1ccccc1)C12CC3CC(CC(C3)C1)C2 , can you help?
Result: > 100 µM

Query: Looking for the measured TGI of Cc1c(-c2ccccc2)c(C#N)c2nnn(-c3cccc(Cl)c3)c(=O)n12 , can you help?
Result: > 100 µM

Query: Looking for the measured TGI of C=C1CC(CN2CCC(=O)NC2=O)(c2ccccc2)OC1=O (configuration not stated) , can you help?
Result: 32.8 µM

Query: Looking for the measured TGI of C=C1NC(=O)C(CC(C(=O)C(=O)Nc2c(C)cccc2C(C)(C)C)C(=O)c2ccc3ccccc3c2)C(=O)N1 (configuration not stated) , can you help?
Result: > 100 µM

Query: Looking for the measured TGI of Oc1cc(CN2COc3ccccc32)c(O)cc1CNC1CCCCC1 , can you help?
Result: > 100 µM

Query: Looking for the measured TGI of O=C(NNC(=S)Nc1ccccc1)c1ccccn1 , can you help?
Result: > 100 µM

Query: Looking for the measured TGI of CC(C)(C)NC(=O)C12C3C4C1C1C2C3C41C(=O)NC(C)(C)C (configuration not stated) , can you help?
Result: > 100 µM

Query: Looking for the measured TGI of Cc1cc(NNC(=O)c2ccccc2O)nc(Nc2nc3ccccc3o2)n1 , can you help?
Result: 7 µM

Query: Looking for the measured TGI of CN(C)c1ccc(C(=NN)c2ccc(N(C)C)cc2)cc1 , can you help?
Result: 0.672 µM
